Assay: chemical genetic growth profiling, strain panel (AID 1159580);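 further: tested at 20 µM; growth read once vehicle control cultures reached saturation at 30 °C; 1 = growth at the plate median or of vehicle wells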
Settings: S. cerevisiae deletion strains, growth OD, locus YNL209W, strain ssb2, stronger effect = lower value
The whole screen tested about 5,500 compounds, of which about 2,000 (36%) were called active. About 18% were inconclusive and are not listed. This is one part of the list.

compound: CC(=O)NC(C(=O)O)C(C)(C)SN=O (stereo not given)
normalized growth: 0.993
--
compound: COC(=O)Nc1nc2ccc(Sc3ccccc3)cc2[nH]1
normalized growth: 1.01
--
compound: COC(=O)Nc1nc2ccc(S(=O)c3ccccc3)cc2[nH]1 (stereo not given)
normalized growth: 1.01
--
compound: COc1c(-c2coc3cc4c(cc3c2=O)CC(O)C(C)(C)O4)ccc2c1C=CC(C)(C)O2 (stereo not given)
normalized growth: 1
--
compound: COc1c(-c2coc3cc4c(cc3c2=O)CC(OC(C)=O)C(C)(C)O4)ccc2c1C=CC(C)(C)O2 (stereo not given)
normalized growth: 1.03
--
compound: CNCc1ccccc1
normalized growth: 1.01
--
compound: O=C(CNC(=O)c1ccc(Cl)cc1)NO
normalized growth: 1.02
--
compound: Cc1ccc(-c2cc(C(F)(F)F)nn2-c2ccc(S(N)(=O)=O)cc2)cc1
normalized growth: 1.02
--
compound: COc1cc(N)c(Cl)cc1C(=O)NC1CCN(Cc2ccccc2)CC1
normalized growth: 1.01
--
compound: N#CC(O[C@@H]1O[C@H](CO[C@@H]2O[C@H](CO)[C@@H](O)[C@H](O)[C@H]2O)[C@@H](O)[C@H](O)[C@H]1O)c1ccccc1 (stereo not given in full)
normalized growth: 0.984

====

Experiment: chemical genetic growth profiling, strain panel (AID 1159580);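 further: tested at 20 µM; growth read once vehicle control cultures reached saturation at 30 °C; 1 = growth at the plate median or of vehicle wells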
Details: S. cerevisiae deletion strains, growth OD, locus YJL092W, strain hpr5, stronger effect = lower value
About 2,000 (36%) of roughly 5,500 compounds were called active. About 18% were inconclusive and are not listed. The list shows a part of the results.

molecule: CC(=O)/C=C\[C@@H]1[C@@]2(C)CCCC(C)(C)C2CC[C@@]1(C)O (stereo not given in full)
normalized growth: 0.98
//
molecule: COc1cc(C(=O)NCCCCCC(=O)O)cc(OC)c1OC
normalized growth: 0.994
//
molecule: N=C(N)c1ccc(OCCCCCOc2ccc(C(=N)N)cc2)cc1
normalized growth: 0.919
//
molecule: CC(C)(C#N)O[C@@H]1O[C@H](CO)[C@@H](O)[C@H](O)[C@H]1O
normalized growth: 1
//
molecule: Nc1ccccc1C(=O)CC(N)C(=O)O (stereo not given)
normalized growth: 1.01

====

Experiment: chemical genetic growth profiling, strain panel (AID 1159580);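 further: tested at 20 µM; growth read once vehicle control cultures reached saturation at 30 °C; 1 = growth at the plate median or of vehicle wells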
Conditions: S. cerevisiae deletion strains, growth OD, locus YDL017W, strain CDC7
The campaign covered roughly 5,500 compounds. About 2,000 (36%) were called active. Inconclusive results (about 18%) are left out. No stated cut-off is given here; in the data, active means normalized growth mostly below about 0.91 (no sharp cut-off); inconclusive means no clear call, values can overlap the other calls; inactive means mostly above about 0.92. Some of the results follow.
Outcomes: true for active, false for inactive

compound: Nc1ccccc1C(=O)N/N=C\c1cc(Br)ccc1O
assigned-label: false

compound: O=C(Nc1ccc(Cl)cc1)SCc1c(Cl)cccc1Cl
assigned-label: false

compound: Clc1cc(Cl)cc(-c2nc(SCc3ccc(Cl)cc3Cl)n[nH]2)c1
assigned-label: false

compound: O=[N+]([O-])c1cnc(Sc2nnc(SCc3cccc(C(F)(F)F)c3)s2)s1
assigned-label: true

compound: O=C(c1cccs1)N(Cc1cccnc1)Cc1ccc(Cl)cc1Cl
assigned-label: false

compound: O=C(NCC(c1ccccc1)c1c[nH]c2ccccc12)c1ccc(C(F)(F)F)cc1 (stereo not drawn)
assigned-label: false

compound: O=C(NCC1COc2ccccc2O1)c1ccc(Cl)cc1 (stereo not drawn)
assigned-label: false

compound: O=C(NCCNc1ncc(C(F)(F)F)cc1Cl)C(F)(F)Sc1ccccc1
assigned-label: false

compound: Fc1ccc(NC(=S)N2CCCN(Cc3ccc(Cl)cc3Cl)CC2)cc1
assigned-label: false

compound: Clc1ccc2c(c1)c1ccccc1n2CN1CCOCC1
assigned-label: false

compound: O=S(=O)(c1ccc(Cl)cc1)N(Cc1cccnc1)Cc1ccc(Cl)cc1Cl
assigned-label: false

compound: O=[N+]([O-])c1ccc(S(=O)(=O)c2ccccc2)nc1S(=O)(=O)c1ccccc1
assigned-label: false

compound: Nc1ccc(Sc2ccccc2)nc1Sc1ccccc1
assigned-label: false

compound: Cc1csc(NC(=O)Nc2ccc(C(F)(F)F)cc2)c1
assigned-label: false

compound: Brc1ccc2[nH]c3c(c2c1)CCC3
assigned-label: false

compound: CCOC(=O)c1cc(CC)sc1NC(=O)c1ccc([N+](=O)[O-])o1
assigned-label: false

compound: O=C(CSCc1csc2ccccc12)Nc1ccc(F)c(Cl)c1
assigned-label: false

compound: Cc1csc(NC(=O)Nc2ccc(C(F)(F)F)cc2)c1Cl
assigned-label: false

compound: S=C(NNC(=S)NC1CC2C=CC1C2)Nc1ccc(Br)c(Cl)c1 (stereo not drawn)
assigned-label: false

compound: O=C(NCCNc1ncc(Cl)cc1C(F)(F)F)C(F)(F)Sc1ccccc1
assigned-label: false

compound: COc1cccc(NC(=S)NC2CC(C)CC(C)(C)C2)c1 (stereo not drawn)
assigned-label: false

compound: Fc1cccc(Cl)c1CSc1n[nH]c(-c2cc(C(F)(F)F)cc(C(F)(F)F)c2)n1
assigned-label: false

compound: CSc1n[nH]c(-c2cc(C(F)(F)F)cc(C(F)(F)F)c2)n1
assigned-label: false

====

Assay: chemical genetic growth profiling, strain panel (AID 1159580);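 further: tested at 20 µM; growth read once vehicle control cultures reached saturation at 30 °C; 1 = growth at the plate median or of vehicle wells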
Details: S. cerevisiae deletion strains, growth OD, locus YHR013C, strain ard1
Among all 5,500 compounds or so, about 2,000 (36%) were called active. Not shown: some 18% with an inconclusive outcome. Cut-off read from the data, not from the text of the source: active = normalized growth mostly below about 0.91 (no sharp cut-off); inconclusive = no clear call, values can overlap the other calls; inactive = mostly above about 0.92. This is one part of the list. Where a SMILES comes first, the peptide text is derived from it. Bridges are numbered along the chain shown (N, C = ends). [ ]: non-standard residue; d: D form. The star is where a group is joined. ξ: configuration not given here. ξDab(CH2SO3H) = NC(CCNCS(=O)(=O)O)C(=O)O; Heptanoyl(6-Me) = CC(C)CCCCC(=O)*; Dab = NCC[CH](N)C(=O)O
Outcomes: active, inactive

compound: FC(F)(F)c1ccccc1-n1ccnc1
assigned-label: inactive
//
compound: CCCCCCCCCCCC[C@H](C(=O)O)[C@@H](C)C(=O)O
assigned-label: inactive
//
compound: CCOP(=S)(OCC)Oc1nc(Cl)c(Cl)cc1Cl
assigned-label: inactive
//
compound: Cc1cc(-n2c(=O)[nH]c(=O)n(C)c2=O)ccc1Oc1ccc(SC(F)(F)F)cc1
assigned-label: inactive
//
compound: CCC(C)C1NC(=O)C(CCNCS(=O)(=O)O)NC(=O)C(NC(=O)C(CCNCS(=O)(=O)O)NC(=O)C(NC(=O)C(CCNCS(=O)(=O)O)NC(=O)CCCCC(C)C)C(C)O)CCNC(=O)C(C(C)O)NC(=O)C(CCNCS(=O)(=O)O)NC(=O)C(CCNCS(=O)(=O)O)NC(=O)C(C(C)CC)NC1=O (stereo not drawn) ({Heptanoyl(6-Me)}-[ξDab(CH2SO3H)]T[ξDab(CH2SO3H)][Dab][ξDab(CH2SO3H)]II[ξDab(CH2SO3H)][ξDab(CH2SO3H)]T; lactam 4-C; configuration not given here)
assigned-label: inactive
//
compound: C#C[C@]1(OC(C)=O)CCC2C3CCC4=C/C(=N\O)CCC4C3CC[C@@]21CC (stereo partly drawn)
assigned-label: active
//
compound: C[C@@H]1OC(O[C@H]2C(O[C@H]3CC[C@@]4(C)C(CC[C@]5(C)C4CC=C4C6CC(C)(C)CC[C@]6(C(=O)O)CC[C@]45C)[C@]3(C)CO)OC[C@H](O)[C@@H]2O)[C@H](O)[C@H](O)[C@H]1O (stereo partly drawn)
assigned-label: active
//
compound: C#C[C@]1(O)CCC2C3CCC4=CC(=O)CC[C@@H]4C3CC[C@@]21CC (stereo partly drawn)
assigned-label: inactive
//
compound: Cc1cc(C(C)(C)C)c(O)c(C(C)(C)C)c1
assigned-label: inactive
//
compound: CC(=O)O[C@H]1CC[C@@]2(C)C(CC[C@]3(C)C2CC=C2C4CC(C)(C)CC[C@]4(C)CC[C@]23C)C1(C)C (stereo partly drawn)
assigned-label: inactive
//
compound: COc1ccc2[nH]cc(CCN)c2c1
assigned-label: inactive
//
compound: COC1=C[C@@H]2[C@@H]3Cc4ccc(OC)c(O)c4[C@]2(CCN3C)CC1=O
assigned-label: inactive
//
compound: C#C[C@]1(O)CCC2C3CCC4=CC(=O)CC[C@@H]4C3CC[C@@]21C (stereo partly drawn)
assigned-label: inactive
//
compound: CCN1C[C@]2(OC(=O)c3ccccc3NC(C)=O)CCC(OC)[C@]34C1[C@H](CC23)[C@@]1(O)CC(OC)[C@H]2CC4C1(O)[C@H]2OC (stereo partly drawn)
assigned-label: inactive
//
compound: CCCCCCCCCCCCCCC(C(=O)O)C(O)(CC(=O)OC)C(=O)O (stereo not drawn)
assigned-label: active
//
compound: COc1cccc2c1C(=O)c1c(O)c3c(c(O)c1C2=O)C[C@@](O)(C(=O)CO)C[C@@H]3O[C@H]1C[C@H](N)[C@@H](O)[C@H](C)O1
assigned-label: active
//
compound: Cc1ccc(S(=O)(=O)NC(=O)NN2CC3CCCC3C2)cc1 (stereo not drawn)
assigned-label: inactive
//
compound: CC1(C)CC[C@]2(C)CC[C@]3(C)C(=CCC4[C@@]5(C)CC[C@H](O)C(C)(C)C5CC[C@]43C)C2C1 (stereo partly drawn)
assigned-label: inactive
//
compound: CC1(C)CC(O)C2(C)CCC3(C)C(=CCC4C5(C)CCC(O)C(C)(CO)C5CCC43C)C2C1 (stereo not drawn)
assigned-label: inactive
//
compound: O=C(O)CC(O)(CC(=O)O)C(=O)O
assigned-label: inactive
//
compound: NC(Cc1c[nH]c2ccccc12)C(=O)O (stereo not drawn)
assigned-label: inactive
//
compound: O=C(Nc1ccc(C(=O)O)c(O)c1)c1ccccc1
assigned-label: inactive
//
compound: COC(=O)C[C@H]1C(C)(C)C(=O)[C@@H]2CC3C4=CC(=O)O[C@@H](c5ccoc5)[C@]4(C)CCC3[C@@]1(C)C2=O (stereo partly drawn)
assigned-label: inactive
//
compound: CC1(C)CC[C@]2(C(=O)O)CC[C@]3(C)C(=CCC4[C@@]5(C)CC[C@H](O)[C@@](C)(CO)C5CC[C@]43C)C2C1 (stereo partly drawn)
assigned-label: inactive
//
compound: COc1cc(C(=O)NCCCCCC(=O)O)cc(OC)c1OC
assigned-label: inactive
//
compound: Cc1cn([C@H]2C[C@H](N=[N+]=[N-])[C@@H](CO)O2)c(=O)[nH]c1=O
assigned-label: inactive
//
compound: N=C(N)c1ccc(OCCCCCOc2ccc(C(=N)N)cc2)cc1
assigned-label: inactive
//
compound: C/C=C1\[C@H]2C=C(C)C[C@]1(N)c1ccc(=O)[nH]c1C2
assigned-label: inactive
//
compound: Nc1ccc(S(=O)(=O)Nc2cnc3ccccc3n2)cc1
assigned-label: inactive
//
compound: CC(C)(Sc1cc(C(C)(C)C)c(O)c(C(C)(C)C)c1)Sc1cc(C(C)(C)C)c(O)c(C(C)(C)C)c1
assigned-label: inactive
//
compound: CC1OC(=O)C(C(C)C)NC(=O)C(C(C)C)OC(=O)C(C(C)C)NC(=O)C(C)OC(=O)C(C(C)C)NC(=O)C(C(C)C)OC(=O)C(C(C)C)NC(=O)C(C)OC(=O)C(C(C)C)NC(=O)C(C(C)C)OC(=O)C(C(C)C)NC1=O (stereo not drawn)
assigned-label: active
//
compound: Cc1ccc(-c2cc(C(F)(F)F)nn2-c2ccc(S(N)(=O)=O)cc2)cc1
assigned-label: inactive
//
compound: C[C@H]1[C@H](C)CC[C@]2(CO)CC[C@]3(C)C(=CCC4[C@@]5(C)CC[C@H](O)C(C)(C)C5CC[C@]43C)[C@H]12 (stereo partly drawn)
assigned-label: inactive
